biological target: human PAC1 (Homo sapiens); assay: Filter binding assay, membranes of cells transiently transfected with human PAC1, 125I-labeled PACAP-27 tracer (Table 2); set-up: expressed in transfected cells; conditions: read-out: Human PAC1 Receptor Binding
Sequence (P41586 21-468): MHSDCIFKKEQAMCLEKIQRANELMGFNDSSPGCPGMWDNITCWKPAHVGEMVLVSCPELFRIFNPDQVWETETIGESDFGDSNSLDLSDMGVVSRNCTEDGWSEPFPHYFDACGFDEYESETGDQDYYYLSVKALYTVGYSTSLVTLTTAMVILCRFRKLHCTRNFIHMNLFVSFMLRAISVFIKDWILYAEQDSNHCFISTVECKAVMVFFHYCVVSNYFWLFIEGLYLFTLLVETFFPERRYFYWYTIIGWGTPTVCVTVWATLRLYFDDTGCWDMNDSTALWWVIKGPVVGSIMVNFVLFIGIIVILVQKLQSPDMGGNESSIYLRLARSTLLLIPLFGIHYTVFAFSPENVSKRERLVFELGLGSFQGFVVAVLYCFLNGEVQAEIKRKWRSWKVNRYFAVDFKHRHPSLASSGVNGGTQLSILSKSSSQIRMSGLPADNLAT
Where no end group is shown, it is not given here. The star is where a group is joined. Hexanoyl = CCCCCC(=O)*
READOUT TYPE: IC50 (nM)
Give the value in nM but do not write nM after it.

# count of solved cases: 3
[[record]]
substance = "Hexanoyl-HSDAVFTDNYTRLRKQVAAIKYLQSIKNKRYGGPSSGAPPPS [Agonist P149]"
measured_target = "human PAC1 (Homo sapiens)"
recorded_result = 773

[[record]]
substance = "Hexanoyl-HSDAVFTDNYTRLRKQVAGKKYLQSIKNKRYGGPSSGAPPPS [Agonist P275]"
measured_target = "human PAC1 (Homo sapiens)"
recorded_result = 630

[[record]]
substance = "Hexanoyl-HSDAVFTDNYTRLRKQVAAKFYLQSIKNKRYGGPSSGAPPPS [Agonist P186]"
measured_target = "human PAC1 (Homo sapiens)"
recorded_result = 318


Form field - read-out: IC50; system: human PAC1 (Homo sapiens); submitted item: Hexanoyl-HSDAVFTDNYTRLRK(Ac)QVAAKK(Ac)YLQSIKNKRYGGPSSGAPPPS [Agonist P194]
626

Measured values drawn from patent US20080026996A1 for this set.
